Source listed as patent US8178506B2.

Kindly state AP2 mRNA for each of the entries shown.
system: aP2; experiment: aP2 mRNA expression in adipocytes (real-time PCR); format: cell-based, human; conditions: differentiating adipocytes transfected with oligomeric compound
In the oligonucleotide strings, read from the 5' end, every base follows the letter of its sugar. An asterisk marks phosphorothioate; unmarked linkages are phosphodiester. Other units and linkages are bracketed, terminal groups are in braces. A string of capitals states the bases alone. e = 2'-O-(2-methoxyethyl) (MOE); [5mC] = 5-methylcytosine; d = 2'-deoxy (DNA)

Request: So what's the measured AP2 mRNA for this one? 328132 (antisense eG*eT*eG*eA*eG*eA*eG*eT*eA*eG*e[5mC]*eA*eT*eG*eT*eT*eT*eG*eT*e[5mC]*eT) [compound 328132]
Result: 81 percentage of untreated control (UTC)

Request: I have this substance here, 328651 (eG*eG*eT*eA*eA*dG*dA*dG*dG*dA*dT*dG*d[5mC]*dG*d[5mC]*eT*eG*e[5mC]*eT*e[5mC]; antisense) [compound 328651] , and I need its recorded AP2 mRNA.
Result: 84 percentage of untreated control (UTC)

Request: Entry under review: 328677 (eT*e[5mC]*e[5mC]*eT*eG*dG*dA*dT*dG*dA*dT*dA*dT*d[5mC]*dT*eA*e[5mC]*e[5mC]*eT*e[5mC]; antisense) [compound 328677] . Reported AP2 mRNA?
Result: 61 percentage of untreated control (UTC)

Request: Fill in the blank: the reported AP2 mRNA of 327933 (antisense eA*eA*eG*eG*eG*eA*eT*eT*e[5mC]*e[5mC]*eT*eG*eG*eG*eA*eA*eA*eA*e[5mC]*eT*eG*eG*eA*e[5mC]) [compound 327933] is ____.
Result: 82 percentage of untreated control (UTC)

###

Assign PPAR gamma mRNA to each entry below.
Tested on: PPARγ
Assay: PPARγ mRNA expression in adipocytes (real-time PCR)
Assay type: cell-based, human
Conditions: Table 17; differentiating adipocytes; control = treatment with ISIS 342673
Method: Expression of the four hallmark genes, HSL, aP2, Glut4, and PPARγ, is also measured in adipocytes transfected with oligomeric compounds of the invention. Cells are lysed on day nine post-transfection and total RNA is harvested. The amount of total RNA in each sample is determined using a Ribogreen Assay (Invitrogen Life Technologies, Carlsbad, Calif.). […]
In the oligonucleotide strings, read from the 5' end, every base follows the letter of its sugar. An asterisk marks phosphorothioate; unmarked linkages are phosphodiester. Other units and linkages are bracketed, terminal groups are in braces. A string of capitals states the bases alone. e = 2'-O-(2-methoxyethyl) (MOE); [5mC] = 5-methylcytosine

Request: Report PPAR gamma mRNA for 328127 (antisense eA*eA*e[5mC]*eG*eA*eT*eA*eA*eA*eA*e[5mC]*eA*eT*eA*e[5mC]*eT*eT*eG*eT*e[5mC]*eA) [compound 328127] please.
Result: 77.6 percentage of control

Request: Could you tell me which PPAR gamma mRNA is on file for 328137 (eG*eT*eA*eA*eG*e[5mC]*eG*e[5mC]*eA*eG*e[5mC]*eT*e[5mC]*e[5mC]*eA*e[5mC]*eA*eG*eG*e[5mC]*eT; anti-miR) [compound 328137] ?
Result: 85.7 percentage of control

Request: Can you look up the measured PPAR gamma mRNA of 328133 (eT*eG*eA*eA*eG*eG*eT*eT*e[5mC]*eG*eG*eA*eG*eA*eT*eA*eG*eG*e[5mC]*eT*eA; anti-miR) [compound 328133] for me?
Result: 63.8 percentage of control

Request: PPAR gamma mRNA for 328124 (antisense eA*eG*e[5mC]*eA*eG*eG*eT*eG*eA*eA*eG*eG*e[5mC]*eA*e[5mC]*e[5mC]*eT*eG*eG*e[5mC]*eT) [compound 328124] ?
Result: 90.4 percentage of control

Request: Field request: PPAR gamma mRNA | item: 328128 (antisense eA*eG*eT*eA*eA*e[5mC]*eT*eT*e[5mC]*eT*eT*eG*e[5mC]*eA*eG*eT*eT*eG*eG*eA) [compound 328128]
Result: 84.0 percentage of control

Request: Look at this substance and give its reported PPAR gamma mRNA. 328123 (antisense eT*eT*eA*e[5mC]*eA*eG*eG*eT*eG*e[5mC]*eT*eG*e[5mC]*eA*eA*e[5mC]*eT*eG*eG*eA*eA) [compound 328123]
Result: 74.7 percentage of control

###

test system: A549 cells; experiment: Cell cycle assay in A549 cells; assay type: cell-based, human; details: A549 cells, 100 nM, 24 hours; relative to the untreated control cells in that phase
assay-metric: % cells in cell cycle phase: S (%)
Kindly answer with a numeric value in %, unit omitted.

Request: Which % cells in cell cycle phase: S value belongs to 340350 (antisense TGCTCAATAAATACCCGTTGAA; all 2'-MOE, all phosphorothioate, methylation of C not given here) [compound 340350] ?
Result: 60

Request: Looking for the measured % cells in cell cycle phase: S of 338637 (antisense TCAGAGCGGAGAGACACAAG; all 2'-MOE, all phosphorothioate, methylation of C not given here) [compound 338637] , can you help?
Result: 73

Request: Record request: % cells in cell cycle phase: S value, item 338836 (antisense TCCTCGGTGGCAGAGCTCAG; all 2'-MOE, all phosphorothioate, methylation of C not given here) [compound 338836]
Result: 80

Request: What measured % cells in cell cycle phase: S goes with 338769 (antisense GCTTCCCAGCGGCCTATAGT; all 2'-MOE, all phosphorothioate, methylation of C not given here) [compound 338769] ?
Result: 75

###

Exercise: state measured IL-12 mRNA expression, +IFN % UTC for each of the substances provided.
tested on: IL-12 mRNA; assay: IL-12 mRNA in LPS-activated primary murine macrophages; assay type: cell-based, mouse; conditions: 300 nM oligomeric compound, stimulation with IFN-gamma and LPS; average of 2 experiments; normalized to LPS-treated cells without oligomeric compound
In the oligonucleotide strings, read from the 5' end, every base follows the letter of its sugar. An asterisk marks phosphorothioate; unmarked linkages are phosphodiester. Other units and linkages are bracketed, terminal groups are in braces. A string of capitals states the bases alone. e = 2'-O-(2-methoxyethyl) (MOE); [5mC] = 5-methylcytosine
I only need the number, in % UTC, no unit after it.

Request: Give the measured IL-12 mRNA expression, +IFN % UTC of 327961 (antisense eG*eG*eG*eG*eT*eA*eT*eT*eT*eG*eA*e[5mC]*eA*eA*eA*e[5mC]*eT*eG*eA*e[5mC]*eA) [compound 327961] .
Result: 10

Request: // lookup IL-12 mRNA expression, +IFN % UTC for 327935 (antisense e[5mC]*eT*eA*e[5mC]*e[5mC]*eT*eG*e[5mC]*eA*e[5mC]*eT*eA*eT*eA*eA*eG*e[5mC]*eA*e[5mC]*eT*eT*eT*eA) [compound 327935]
Result: 24

Request: What value of measured IL-12 mRNA expression, +IFN % UTC is listed for 327921 (antisense e[5mC]*eT*eT*e[5mC]*e[5mC]*eA*eG*eT*e[5mC]*eG*eG*eG*eG*eA*eT*eG*eT*eT*eT*eA*e[5mC]*eA) [compound 327921] ?
Result: 24

Request: Given the substance 328138 (eG*eA*eG*e[5mC]*eT*eG*e[5mC]*eT*e[5mC]*eA*eG*e[5mC]*eT*eG*eG*e[5mC]*e[5mC]*eA*eT*e[5mC]*eA; anti-miR) [compound 328138] , what is its reported IL-12 mRNA expression, +IFN % UTC?
Result: 31

Request: For 327940 (antisense eG*eA*eA*e[5mC]*eA*eG*eG*eT*eA*eG*eT*e[5mC]*eT*eG*eA*eA*e[5mC]*eA*e[5mC]*eT*eG*eG*eG) [compound 327940] , what is its reported IL-12 mRNA expression, +IFN % UTC?
Result: 107

###

test system: HeLa cells; test: Cell cycle assay in HeLa cells; type: cell-based, human; conditions: HeLa cells, 150 nM oligomeric compound, 24 hours, relative to untreated control (UTC = 100)
In the oligonucleotide strings, read from the 5' end, every base follows the letter of its sugar. An asterisk marks phosphorothioate; unmarked linkages are phosphodiester. Other units and linkages are bracketed, terminal groups are in braces. A string of capitals states the bases alone. e = 2'-O-(2-methoxyethyl) (MOE); [5mC] = 5-methylcytosine; d = 2'-deoxy (DNA)
assay-metric: % cells aneuploid
Respond with a number, then the unit of measure.

Request: Requested read-out: % cells aneuploid. Entry: 327907 (antisense eA*eG*e[5mC]*e[5mC]*eT*eA*eT*e[5mC]*e[5mC]*eT*eG*eG*eA*eT*eT*eA*e[5mC]*eT*eT*eG*eA*eA) [compound 327907]
Result: 75%

Request: I am curious: what % cells aneuploid value has been reported for 328759 (antisense eG*eA*eG*eG*eG*dA*dT*dT*dG*dT*dA*dT*dG*dA*dA*e[5mC]*eA*eT*e[5mC]*eT) [compound 328759] ?
Result: 184%

Request: If you can, please state the reported % cells aneuploid value of 327878 (antisense e[5mC]*eT*eA*eG*eT*eG*eG*eT*e[5mC]*e[5mC]*eT*eA*eA*eA*e[5mC]*eA*eT*eT*eT*e[5mC]*eA*e[5mC]) [compound 327878] .
Result: 73%

Request: Any idea what its % cells aneuploid is? The substance is 328421 (antisense eG*e[5mC]*eT*eT*eA*dG*d[5mC]*dT*dG*dT*dG*dT*d[5mC]*dT*dT*eA*e[5mC]*eA*eG*e[5mC]) [compound 328421]
Result: 70%

Request: Field request: % cells aneuploid | item: 328780 (antisense eT*eG*eT*e[5mC]*eA*dT*dG*dG*dA*d[5mC]*dA*dG*dG*dA*dT*eG*eA*eA*eT*eA) [compound 328780]
Result: 149%
